# maps each entry to its Tm
test: Differential scanning calorimetry; type: physicochemical; design: unit: °C; conditions: in °C (unit assumed)

- molecule: "S16: human anti-HMG1 antibody, ATCC PTA-6259; VL/VH aa SEQ ID NO: 13/15 (antibody, listed as Homo sapiens, V domains shown) VH: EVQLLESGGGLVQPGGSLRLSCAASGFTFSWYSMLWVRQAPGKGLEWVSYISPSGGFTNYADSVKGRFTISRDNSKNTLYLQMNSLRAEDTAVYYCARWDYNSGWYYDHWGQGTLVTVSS VL: AQDIQMTQSPDTLSLSPGERATLSCRASQSVNSRNLAWYQQKPGQAPRLLIYGASTRATGIPDRFSGSVSGTEFTLTISSLQPDDFATYYCQQYNSYFTFGQGTKLEIK"
  Tm: 71.4
- molecule: "G9: human anti-HMG1 antibody; VL/VH aa SEQ ID NO: 34/36 (antibody, listed as Homo sapiens, V domains shown) VH: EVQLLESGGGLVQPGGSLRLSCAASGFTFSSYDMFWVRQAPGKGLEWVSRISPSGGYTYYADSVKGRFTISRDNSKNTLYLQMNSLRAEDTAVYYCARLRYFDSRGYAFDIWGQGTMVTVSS VL: AQDIQMTQSPGTLSLSPGERATLSCRASQSVRSSYLAWYQQKPGQAPRLLIYGASTRATGIPDRFSGSGSGTDFTLTISRLEPEDFAVYYCQQYGTSRWTFGQGTKVEIK"
  Tm: 77.9
- molecule: "E11: human anti-HMG1 antibody, recognizes HMG1 A-Box; VL/VH aa SEQ ID NO: 24/26 (antibody, listed as Homo sapiens, V domains shown) VH: EVQLLESGGGLVQPGGSLRLSCAASGFTFSRYQMNWVRQAPGKGLEWVSSISPSGGHTHYADSVKGRFTISRDNSKNTLYLQMNSLRAEDTAVYYCAKDGRQGKISTVDHWGQGTLVTVSS VL: AQDIQMTQSPGTLSLSPGERATLSCRASQSVRSNFLAWYQQKPGQAPRLLIYGASRRASGIPDRFSGSGFGADFTLSISRLEPEDFAVYYCQQYGSSPNTFGQGSRVEIK"
  Tm: 66.3
- molecule: "S10: human anti-HMG1 antibody; VL/VH aa SEQ ID NO: 58/60 (antibody, listed as Homo sapiens, V domains shown) VH: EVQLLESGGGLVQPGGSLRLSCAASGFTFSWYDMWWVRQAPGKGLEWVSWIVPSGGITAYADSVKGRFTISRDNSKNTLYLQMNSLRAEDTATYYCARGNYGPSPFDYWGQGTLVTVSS VL: AQDIQMTQSPGTLSLSPGERATLSCRATQSVRKNFLAWYQQKPGQAPRLLIYDASSRATGIPDRFSGSGSGTDFTLTISRLEPEDFAVYYCQQYGNSPIIFGQGTRLEIK"
  Tm: 75.3
- molecule: "S12: human anti-HMG1 antibody; VL/VH aa SEQ ID NO: 62/64 (antibody, listed as Homo sapiens, V domains shown) VH: EVQLLESGGGLVQPGGSLRLSCAASGFTFSKYIMHWVRQAPGKGLEWVSGIVPSGGLTEYADSVKGRFTISRDNSKNTLYLQMNSLRAEDTATYYCAKEIFGQFDYWGQGTLVTVSS VL: AQSALTQPPSVSAAPRQRVTISCSGSTSNIGNNAVTWYQYFPGKAPKLLIYSDNQRPSGVPDRFSGSKSGTSASLAITGLQAEDEADYYCQSYDRGLSVVFGGGTKLTVL"
  Tm: 66.9
- molecule: "S17: human anti-HMG1 antibody; VL/VH aa SEQ ID NO: 70/72 (antibody, listed as Homo sapiens, V domains shown) VH: EVQLLESGGGLVQPGGSLRLSCAASGFTFSYYDMHWVRQAPGKGLEWVSRISPSGGYTWYADSVKGRFTISRDNSKNTLYLQMNSLRAEDTAVYYCTRGRYTSGWHEYFDPWGQGTLVTVSS VL: AQDIQMTQSPSSLSASVGDRVTITCRASQSIGTYLNWYQQKPGTAPKVLIYAASSLQSGVPSRFSGSGSGTDFTLTISSLQPEDFSTYYCQQSYNTPRTFGQGTKLEIK"
  Tm: 90.0
- molecule: "G12: human anti-HMG1 antibody; VL/VH aa SEQ ID NO: 38/40 (antibody, listed as Homo sapiens, V domains shown) VH: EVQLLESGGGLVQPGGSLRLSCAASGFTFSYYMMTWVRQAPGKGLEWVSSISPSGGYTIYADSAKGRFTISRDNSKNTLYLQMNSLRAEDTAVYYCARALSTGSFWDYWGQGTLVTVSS VL: AQDIQMTQSPGTLSLSPGERATLSCRASESLTSTYVAWYQHKPGQAPRLLIHGGSTRATGIPVRFSGSGSGTDFTLTIATLEPEDFAVYYCQQYGSSPYTFGQGTKLEIK"
  Tm: 78.8
